Test system: MDA-MB-435
Assay: NCI tumour cell line growth inhibition, 48 h
Active and inactive are the calls of the source. Rule as the data show it: active = GI50 up to about 1.1 µM and inactive = higher.
The entries below come with measured GI50 values attached.
REPORTED ENDPOINT: GI50

MOLECULE: COc1ccc2cc(C(=O)NCCCNC(=O)c3ccc4cc(OC)ccc4c3)ccc2c1
REPORTED VALUE: > 100 µM (inactive)
--
MOLECULE: Cc1ccc2c(c1C)C(=O)/C(=C/c1cccc(C)c1C(=O)O)C2
REPORTED VALUE: 52.7 µM (inactive)
--
MOLECULE: CC(C)[C@@H]1CC[C@@H](C)C[C@H]1OC(=O)/C=C1\C(C(=O)O[C@@H]2C[C@H](C)CC[C@H]2C(C)C)[C@H]2C=C[C@@H]1O2 (some centres undefined)
REPORTED VALUE: 59 µM (inactive)
--
MOLECULE: Cc1ccc(NC(=O)/C(Cc2cc(=O)oc3cc(O)ccc23)=N\NC(=O)C[N+](C)(C)C)cc1C
REPORTED VALUE: > 100 µM (inactive)
--
MOLECULE: COc1ccc(CC2c3cc4c(cc3CCN2C)OCO4)c(C=O)c1OC (centres undefined)
REPORTED VALUE: > 100 µM (inactive)
--
MOLECULE: O=C1NC(=O)C(c2c[nH]c3cc(Br)ccc23)=C1c1cnc[nH]1
REPORTED VALUE: 25.1 µM (inactive)
--
MOLECULE: C[Si](C)(N[Si](C)(C)OCCc1ccccc1)OCCc1ccccc1
REPORTED VALUE: > 100 µM (inactive)
--
MOLECULE: CCOP(=O)(OCC)C(c1ccc(F)cc1)N(C(=O)NC(F)(F)F)c1ccc(OC)cc1 (centres undefined)
REPORTED VALUE: > 100 µM (inactive)
--
MOLECULE: CSc1nc(Nc2cccc(C(F)(F)F)c2)c2c(N)nn(C)c2n1
REPORTED VALUE: > 100 µM (inactive)
--
MOLECULE: O=[N+]([O-])c1ccc(Cl)cc1C1ON=C(c2ccccc2)N1C12CC3CC(CC(C3)C1)C2 (centres undefined)
REPORTED VALUE: > 100 µM (inactive)
--
MOLECULE: c1ccc2c(c1)Nc1ccccc1[P+]21c2ccccc2Nc2ccccc21
REPORTED VALUE: 0.284 µM (active)
--
MOLECULE: CC1CSC(=S)N1C(=O)N1C(=S)SCC1C (centres undefined)
REPORTED VALUE: 17.2 µM (inactive)
--
MOLECULE: CC(=O)Nc1cc(CN2CCCCC2)c(O)c2ncccc12
REPORTED VALUE: 31.4 µM (inactive)
--
MOLECULE: CCCCCC(C)C[C@H]1CO[C@H](c2ccc[nH]2)N[C@H]1C(=O)OC (some centres undefined)
REPORTED VALUE: > 100 µM (inactive)
